# target.or.test.system: μ opioid receptor (MOP) (Homo sapiens, UniProt P35372)
# Sequence (P35372 whole entry, species assumed): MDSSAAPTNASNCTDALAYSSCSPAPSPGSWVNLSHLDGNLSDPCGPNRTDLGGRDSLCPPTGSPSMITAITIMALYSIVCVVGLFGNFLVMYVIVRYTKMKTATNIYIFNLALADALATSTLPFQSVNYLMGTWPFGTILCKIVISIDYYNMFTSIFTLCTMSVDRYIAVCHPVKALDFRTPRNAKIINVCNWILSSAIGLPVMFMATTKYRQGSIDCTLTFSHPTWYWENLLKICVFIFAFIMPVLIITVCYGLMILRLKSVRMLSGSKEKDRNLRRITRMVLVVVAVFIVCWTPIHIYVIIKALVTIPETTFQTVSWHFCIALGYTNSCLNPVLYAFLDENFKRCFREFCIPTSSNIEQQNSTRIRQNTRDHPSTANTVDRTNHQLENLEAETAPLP
# Format: binding
# recorded.conditions: ratio DOP IC50 / MOP IC50
Non-standard residues stand in square brackets, D forms with d. Residues, ends and D or L forms follow the SMILES beside them. Dmt = Cc1cc(O)cc(C)c1C[C@H](N)C(=O)O
readout: Selectivity IC50δ/IC50μ
Field format: numeric only.

Recorded results for 3 molecules are shown here.
Cc1cc(O)cc(C)c1C[C@H](N)C(=O)N[C@H](CCCNC(=N)N)C(=O)N[C@@H](Cc1ccccc1-c1ccc(C(F)(F)F)cc1)C(=O)NCC(N)=O :: 560
COc1ccc(-c2ccccc2C[C@H](NC(=O)[C@@H](CCCNC(=N)N)NC(=O)[C@@H](N)Cc2c(C)cc(O)cc2C)C(=O)NCC(N)=O)cc1 :: 149
Cc1cc(O)cc(C)c1C[C@H](N)C(=O)N[C@H](CCCNC(=N)N)C(=O)N[C@@H](Cc1ccccc1-c1ccc(F)cc1)C(=O)NCC(N)=O :: 925

From here, focus on the item given below.
Task: Which measured Selectivity IC50δ/IC50μ value corresponds to Cc1cc(O)cc(C)c1C[C@H](N)C(=O)N[C@H](CCCNC(=N)N)C(=O)N[C@@H](Cc1ccccc1)C(=O)NCC(N)=O [Compound 19, Dmt-D-Arg-Phe-Gly-NH2] (H-[Dmt][dR]FG-NH2) ?
Output: 140
